- assayComment: qHTS assay for MDR1-selective chemotherapeutics: Primary screen using the drug-selected MDR subline cells KB-V1; note: nearly all actives have a fitted effect of over 60% in size
- statedConditions: KB-V1 MDR cells viability, CellTiter-Glo, 72 h; series mostly up to 46.1 µM
About 13,000 (3.2%) of roughly 400,000 compounds were called active. Not shown: some 18% with an inconclusive outcome. Calls come from the whole dose curve; as a rule, active = well fitted cell-killing curve with a large enough effect; inconclusive = small, poorly fitted or top-dose-only effect, or effect the other way; inactive = flat fitted curve, though single readings scatter. This is one part of a sample in which actives are shown more often than they occur.
Allowed answers: active, inactive

Input line: Hey, what did the test say about COC(=O)C1=C(c2ccc(F)cc2OCc2ccccc2)C[C@@H]2CC[C@H]1N2C(=O)NCc1ccc2[nH]ccc2c1 ?
Output line: inactive

Input line: For this compound, state the assay outcome: COC(=O)C1=C(c2ccc(F)cc2OCc2ccccc2)C[C@@H]2CC[C@H]1N2C(=O)NCc1ccc(OC)c(OC)c1
Output line: inactive

Input line: GET /call?item= COC(=O)C1=C(c2ccc(F)cc2OCc2ccccc2)C[C@@H]2CC[C@H]1N2C(=O)NCc1ccc(C(C)(C)C)cc1 returns the recorded outcome of this test.
Output line: inactive

Input line: Could you please tell me the result logged for COC(=O)C1=C(c2ccc(-c3ccccc3)c(F)c2)C[C@@H]2CC[C@H]1N2C(=O)NCc1ccc(F)cc1 in this assay?
Output line: active

----------
- assayComment: qHTS assay for MDR1-selective chemotherapeutics: Primary screen using the drug-selected MDR subline cells KB-V1; note: nearly all actives have a fitted effect of over 60% in size
- statedConditions: KB-V1 MDR cells viability, CellTiter-Glo, 72 h; series mostly up to 46.1 µM
Hit rate of the full screen: of about 400,000 compounds, about 13,000 (3.2%) were called active. Roughly 18% stayed inconclusive and do not appear here. The call rests on the fitted dose curve; in most records, active means well fitted cell-killing curve with a large enough effect; inconclusive means small, poorly fitted or top-dose-only effect, or effect the other way; inactive means flat fitted curve, though single readings scatter. This excerpt belongs to a sample that is enriched for actives.
Hi! Could you answer with just one of these? active, inactive

Input line: Fill in: this test's call for C[N+]12CN3CN(CN(C3)C1)C2 is ___
Output line: inactive

Input line: What is the recorded call for this compound in the test? Cc1ncoc1C(=O)NCC1=C(c2cccc3ccccc23)C[C@@H]2CC[C@H]1N2Cc1ccco1
Output line: inactive

Input line: GET /call?item= O=C1NCN(c2ccccc2)C12CCN(C(c1cccs1)c1nnnn1C1CCCCC1)CC2 (stereo not drawn) returns the recorded outcome of this test.
Output line: inactive

Input line: Please share the test call associated with COc1ccc(-n2nnnc2C(c2cccc3ccccc23)N2CCC(n3c(=O)[nH]c4ccccc43)CC2)cc1 (stereo not drawn) .
Output line: inactive

Input line: Check the results log: what was the call for CCCOC(=O)C1C2c3ccccc3C(c3ccccc32)C1C(=O)O (stereo not drawn) ?
Output line: inactive

Input line: In this assay, the call recorded for CC1CCCN1CCC(C(N)=O)(c1ccccc1)c1ccccc1 (stereo not drawn) was what?
Output line: inactive

Input line: Test call, this compound: Cc1ccc(Cn2nnnc2CN2CCC(n3nnc4ccccc43)CC2)cc1
Output line: active

Input line: Hey, what did the test say about CCc1ccc(OCC(=O)N2CCN(CC(=O)Nc3ccccc3Cl)CC2)cc1 ?
Output line: inactive

Input line: Each compound tested received a call. Report the one for CC(CC(C#N)(c1ccccc1)c1ccccc1)N1CCCCC1 (stereo not drawn) .
Output line: inactive

Input line: // param item: CCOC(=O)c1c(-c2ccccc2)oc2ccc(OC(=O)N(C)C)cc12 ; yields the recorded call
Output line: active

Input line: # lookup: test call for O=c1[nH]c2ccccc2n1C1CCN(C(c2ccccc2)c2nnnn2Cc2ccccc2)CC1 (stereo not drawn)
Output line: active

Input line: Entry CC(=O)C1(O)CCC2C3CCC4=C(Cl)C(=O)CCC4(C)C3CCC21C (stereo not drawn) : call = ?
Output line: inactive

Input line: Please share the test call associated with Cc1cc(-c2ccc(N)c(C)c2)ccc1N .
Output line: inactive

Input line: For COc1ccc2c(c1)NP(=S)(c1ccccc1)N2 (stereo not drawn) , which call appears in the assay record?
Output line: inactive

Input line: How did this test come out for CN(C)C(=O)Oc1ccc2c(c1)O/C(=C\c1ccccc1)C2=O ?
Output line: inactive

Input line: Dear all, I need the recorded test outcome for CC(Cc1ccccc1)NCCC(c1ccccc1)c1ccccc1 (stereo not drawn) , thank you.
Output line: active

Input line: Per the records of this test, what outcome belongs to O=c1[nH]c2ccccc2n1C1CCN(C(c2ccnc3ccccc23)c2nnnn2Cc2ccccc2)CC1 (stereo not drawn) ?
Output line: inactive

Input line: Hi, sorry to bother you, what did the test record for CC(C)Nc1nc(Cl)nc(NC(C)C)n1 ?
Output line: inactive

Input line: Tell me the recorded outcome of this test for O=C(CN1CCCCC1)Nc1ccc(Br)cc1C(=O)c1ccccc1Cl .
Output line: inactive

Input line: Fill in: this test's call for NC(=O)Cn1cc(C(=O)c2ccccc2F)c2ccccc21 is ___
Output line: inactive

Input line: // param item: O=C(CCN1CCCCC1)NCC(=O)Nc1ccc(Br)cc1C(=O)c1ccccc1 ; yields the recorded call
Output line: active

Input line: Any idea what this test logged for COC1=C[C@@H]2[C@@H]3Cc4ccc(OC)c(O)c4[C@]2(CCN3C)CC1=O ?
Output line: inactive

Input line: Short answer needed: outcome of this test for CC(=O)NCC1=C(c2ccc3ccccc3c2)C[C@@H]2CC[C@H]1N2Cc1ccco1 ?
Output line: inactive

Input line: Identify the outcome logged in this assay for the compound shown: Cc1ccc(S(=O)(=O)N(C)c2ccc(C(=O)NCC3(N(C)C)CCCCC3)cc2)cc1
Output line: inactive

Input line: What outcome does the record of this test show for C[C@H]1CN([C@@H](C)CO)C(=O)CCCn2nncc2CO[C@H]1CN(C)C(=O)Oc1ccccc1 ?
Output line: inactive

Input line: I would be grateful if you could indicate the recorded call for CC=C(C)C(=O)OC1CCN2CC=C(COC(=O)C(O)(C(C)OC)C(C)(C)O)C12 (stereo not drawn) .
Output line: inactive

Input line: What is the recorded call for this compound in the test? CC(=O)OC1C2(CC3N4C(=O)C5(CO)SSC4(CC31O)C(=O)N5C)OC(C)C(C)(C)C2=O (stereo not drawn)
Output line: active

Input line: Write down the call the test reported for this compound. Item: COc1ccc(NC(=O)N2Cc3ccccc3-n3nncc3C2)cc1
Output line: inactive

Input line: Called result for CC1C2Cn3c(nc4ccccc43)C1N(C)O2 (stereo not drawn)
Output line: inactive

Input line: Short answer needed: outcome of this test for CC(Cc1ccccc1)NC=O (stereo not drawn) ?
Output line: inactive

Input line: State the result this test recorded for COC(=O)C1=C(c2ccc(OCc3ccccc3)cc2)C[C@@H]2CC[C@H]1N2C(=O)NCc1cccc(F)c1 .
Output line: active

Input line: Recorded test call requested for Cc1ccc(OC(=O)N(C)C[C@@H]2OCc3cnnn3CCCC(=O)N([C@H](C)CO)C[C@@H]2C)cc1
Output line: inactive

Input line: Status in this test for O=C1NC(=O)C(Cc2ccccc2)C(=O)N1 ?
Output line: inactive

Input line: Which outcome did this test record for the compound CC1CNCCN1c1ccc(Cl)cc1 (stereo not drawn) ?
Output line: inactive

Input line: Assay outcome for CCC(C)(O)C(=O)OC1C(=O)OC2CC3C(C)=CC(=O)C(O)C3(C)C3C4(O)OCC23C1C(C)C4O (stereo not drawn) : what was it?
Output line: active

Input line: Answer briefly: the call reported for O=P(OC1=CCCCC1)(c1ccccc1)c1ccccc1 in this assay.
Output line: inactive

Input line: Could you check what this test reported for CSCCC(c1nnnn1C(C)(C)C)N1CCC(n2c(=O)[nH]c3ccccc32)CC1 (stereo not drawn) ?
Output line: inactive

Input line: Please state the recorded outcome for this compound: CCOC(=O)CC(SP1(=S)OCC2(CCCCO2)C(C2CCCCO2)O1)C(=O)OCC (stereo not drawn)
Output line: inactive

Input line: Test call, this compound: COC(=O)CN(CCCl)P1(=O)OCCCN1CCCl (stereo not drawn)
Output line: inactive

Input line: Tell me the assay call for O=C1C2CCN(CC2)C1(CO)CO please.
Output line: inactive

Input line: Call for entry CCOC(=O)C1(c2ccccc2)CCN(CC(O)c2ccc(NC(C)=O)cc2)CC1 (stereo not drawn) :
Output line: inactive

Input line: Test call for this compound, please: O=C(c1cc2nc(-c3ccccc3)cc(-c3ccccc3)n2n1)N1CCC2(CC1)OCCO2
Output line: active

Input line: Outcome logged for C[C@]12CCC3C(CC[C@H]4[C@H](O)[C@H](O)CC[C@]34C)C1CCC2=O (stereo partly drawn) in this assay:
Output line: inactive
